- assay-remarks: background-corrected fluorescence of 3'-dye-labeled ssDNA relative to brightest sequence (3'-GCGCG) (fraction); higher = brighter dye fluorescence (less quenching)
- condition-details: dye: Cy5 (3' terminal)
Give Condition met when the value for background-corrected fluorescence is at least 0.4. Give Condition not met when it is less.

primary-sequence	group-label
TTTTTTCATGATCATGATGCTTTTTTTTTTTTTTTGCGCA [ACGCG]	Condition met
TTTTTTGCGCATCAGCATGATTTTTTTTTTTTTTTATGTC [CTGTA]	Condition not met
TTTTTTCAGCATCAGCAGCATTTTTTTTTTTTTTTGTGTT	Condition met
TTTTTTCATCATCATGCTCATTTTTTTTTTTTTTTGGGAG [GAGGG]	Condition met
TTTTTTGATCATGCTCAGCATTTTTTTTTTTTTTTCGAGT [TGAGC]	Condition met
TTTTTTGATCAGCAGCATCATTTTTTTTTTTTTTTCGTTG [GTTGC]	Condition met
TTTTTTCAGCATCAGCATCATTTTTTTTTTTTTTTGTGTG	Condition met
TTTTTGCATCATGATGCTGATTTTTTTTTTTTTTTTGCAC [CACGT]	Condition not met
TTTTTGCAGCAGCAGCATGATTTTTTTTTTTTTTTTTTTC [CTTTT]	Condition not met
TTTTTTGATGATCATGATGATTTTTTTTTTTTTTTCCGCC	Condition not met
TTTTTTGCTGCTGAGCAGCATTTTTTTTTTTTTTTAACTT [TTCAA]	Condition not met
TTTTTTCATGCTGCTGATGATTTTTTTTTTTTTTTGAACC [CCAAG]	Condition not met
TTTTTTGATGATGATGATCATTTTTTTTTTTTTTTCCCCG [GCCCC]	Condition not met
TTTTTTGAGCAGCATGATCATTTTTTTTTTTTTTTCTTCG [GCTTC]	Condition not met
TTTTTGCATGAGCATCAGCATTTTTTTTTTTTTTTTCTGT [TGTCT]	Condition met
TTTTTTGATGCTCATCAGCATTTTTTTTTTTTTTTCAGGT [TGGAC]	Condition met
TTTTTGCATGAGCATGATCATTTTTTTTTTTTTTTTCTCG [GCTCT]	Condition not met
TTTTTTCATGATGCTCAGCATTTTTTTTTTTTTTTGCAGT [TGACG]	Condition met
TTTTTTCATGCGCATCATGATTTTTTTTTTTTTTTGATGC [CGTAG]	Condition met
TTTTTTCATCAGCATCAGCATTTTTTTTTTTTTTTGGTGT [TGTGG]	Condition met
TTTTTGCATGATCAGCAGCATTTTTTTTTTTTTTTTCGTT [TTGCT]	Condition met
TTTTTGCAGCATGATCATGCTTTTTTTTTTTTTTTTTCGA [AGCTT]	Condition met
TTTTTTGCGCATCATGCGCATTTTTTTTTTTTTTTATGAT [TAGTA]	Condition met
TTTTTGCATGATGATGATGCTTTTTTTTTTTTTTTTCCCA [ACCCT]	Condition not met
TTTTTTGCGCAGCATGCGCATTTTTTTTTTTTTTTATTAT	Condition met
TTTTTGCATCATCAGCATGATTTTTTTTTTTTTTTTGGTC [CTGGT]	Condition not met
TTTTTTGCGCATCAGCATCATTTTTTTTTTTTTTTATGTG [GTGTA]	Condition met
TTTTTTGATGAGCAGCATCATTTTTTTTTTTTTTTCCTTG [GTTCC]	Condition not met
TTTTTGCATCATGAGCAGCATTTTTTTTTTTTTTTTGCTT [TTCGT]	Condition not met
TTTTTTCATCAGCATCATGATTTTTTTTTTTTTTTGGTGC [CGTGG]	Condition met
TTTTTTCATGATCATCATCATTTTTTTTTTTTTTTGCGGG [GGGCG]	Condition met
TTTTTGCATGATGATGATGATTTTTTTTTTTTTTTTCCCC [CCCCT]	Condition not met

----------
- assay-remarks: background-corrected fluorescence of 3'-dye-labeled ssDNA relative to brightest sequence (3'-GCGCG) (fraction); higher = brighter dye fluorescence (less quenching)
- condition-details: dye: Cy5 (3' terminal)
readout-name: background-corrected fluorescence

primary-sequence	readout-name	observed-measurement
TTTTTTGAGCATCATCATGATTTTTTTTTTTTTTTCTGGC [CGGTC]	background-corrected fluorescence	0.439
TTTTTTCAGCATGCTGCTCATTTTTTTTTTTTTTTGTAAG [GAATG]	background-corrected fluorescence	0.462
TTTTTTGATGAGCATGAGCATTTTTTTTTTTTTTTCCTCT [TCTCC]	background-corrected fluorescence	0.312
TTTTTTGATGCGCAGCATGCTTTTTTTTTTTTTTTCATTA [ATTAC]	background-corrected fluorescence	0.398
TTTTTTGATGCTGCGCATGCTTTTTTTTTTTTTTTCAATA [ATAAC]	background-corrected fluorescence	0.422
TTTTTTGATGCTGAGCATGATTTTTTTTTTTTTTTCACTC [CTCAC]	background-corrected fluorescence	0.296
TTTTTTCATGCTGCTGCTCATTTTTTTTTTTTTTTGAAAG	background-corrected fluorescence	0.431
TTTTTTGATGATGATGCGCATTTTTTTTTTTTTTTCCCAT [TACCC]	background-corrected fluorescence	0.356
TTTTTGCAGCAGCATGATCATTTTTTTTTTTTTTTTTTCG [GCTTT]	background-corrected fluorescence	0.327
TTTTTTCATCATCATCATGATTTTTTTTTTTTTTTGGGGC [CGGGG]	background-corrected fluorescence	0.532
TTTTTTGATCATGCTGATCATTTTTTTTTTTTTTTCGACG [GCAGC]	background-corrected fluorescence	0.491
TTTTTGCATCATGCTGCTCATTTTTTTTTTTTTTTTGAAG [GAAGT]	background-corrected fluorescence	0.44
TTTTTTCAGCATGCTGATGATTTTTTTTTTTTTTTGTACC [CCATG]	background-corrected fluorescence	0.311
TTTTTGCAGCATGATCATGATTTTTTTTTTTTTTTTTCGC [CGCTT]	background-corrected fluorescence	0.406
TTTTTTCATGATGCGCAGCATTTTTTTTTTTTTTTGCATT [TTACG]	background-corrected fluorescence	0.395
TTTTTTGATGCTGCGCAGCATTTTTTTTTTTTTTTCAATT [TTAAC]	background-corrected fluorescence	0.385

----------
- assay-remarks: background-corrected fluorescence of 3'-dye-labeled ssDNA relative to brightest sequence (3'-GCGCG) (fraction); higher = brighter dye fluorescence (less quenching)
- condition-details: dye: Cy3 (3' terminal)

primary-sequence	background-corrected fluorescence
TTTTTGCATGCTGCTGCTGATTTTTTTTTTTTTTTTAAAC [CAAAT]	0.447
TTTTTGCAGCATGCGCATGCTTTTTTTTTTTTTTTTTATA [ATATT]	0.538
TTTTTGCATGAGCATGCTGCTTTTTTTTTTTTTTTTCTAA [AATCT]	0.539
TTTTTGCATGCTCAGCATGCTTTTTTTTTTTTTTTTAGTA [ATGAT]	0.566
TTTTTTGATGATCATGATGCTTTTTTTTTTTTTTTCCGCA [ACGCC]	0.539
TTTTTGCATGATGCTCATGCTTTTTTTTTTTTTTTTCAGA [AGACT]	0.615
TTTTTTCAGCATGCTGCTGATTTTTTTTTTTTTTTGTAAC [CAATG]	0.441
TTTTTTCATGCTGCTGATGATTTTTTTTTTTTTTTGAACC [CCAAG]	0.41
TTTTTTGCTGAGCATCAGCATTTTTTTTTTTTTTTACTGT [TGTCA]	0.63
TTTTTTCATGCTGCTCATCATTTTTTTTTTTTTTTGAAGG [GGAAG]	0.607
TTTTTTGATGCTGCGCAGCATTTTTTTTTTTTTTTCAATT [TTAAC]	0.538
TTTTTTGATCAGCATGATGATTTTTTTTTTTTTTTCGTCC [CCTGC]	0.4

----------
- assay-remarks: background-corrected fluorescence of 3'-dye-labeled ssDNA relative to brightest sequence (3'-GCGCG) (fraction); higher = brighter dye fluorescence (less quenching)
- condition-details: dye: Cy3 (3' terminal)
Kind request: treat 0.5 as inclusive, so background-corrected fluorescence at 0.5 or higher is satisfied, anything lower is not satisfied.

primary-sequence	group-label
TTTTTTGCGCATGCGCATCATTTTTTTTTTTTTTTATATG [GTATA]	satisfied
TTTTTTGAGCATCATGATGATTTTTTTTTTTTTTTCTGCC [CCGTC]	not satisfied
TTTTTTGAGCATGCGCATCATTTTTTTTTTTTTTTCTATG [GTATC]	satisfied
TTTTTTGATGCTGATCATGATTTTTTTTTTTTTTTCACGC [CGCAC]	satisfied
TTTTTTGATGCGCATCATGCTTTTTTTTTTTTTTTCATGA [AGTAC]	satisfied
TTTTTGCATCAGCATGCTGCTTTTTTTTTTTTTTTTGTAA [AATGT]	satisfied
TTTTTGCATCATGATCAGCATTTTTTTTTTTTTTTTGCGT	satisfied
TTTTTTGCTGCTGATGATGATTTTTTTTTTTTTTTAACCC [CCCAA]	not satisfied
TTTTTTCATGCTGCGCATGCTTTTTTTTTTTTTTTGAATA [ATAAG]	satisfied
TTTTTGCATCATCATCATCATTTTTTTTTTTTTTTTGGGG [GGGGT]	satisfied
TTTTTGCAGCATGCTCATCATTTTTTTTTTTTTTTTTAGG [GGATT]	satisfied
